# Species: Mus musculus
# Assay name: Compound was tested for the immunomodulatory activity in vitro expressed as stimulation index by lymphocyte transformation test at 1 ug/mL
# Type: functional
Non-standard residues stand in square brackets, D forms with d. Residues, ends and D or L forms follow the SMILES beside them. Ac5c = NC1(C(=O)O)CCCC1; GABA = NCCCC(=O)O
Quantity kind: Stimulation index
Give bare numbers.

Compound	Reported
CC[C@H](C)[C@H](NC(=O)C1(NC(=O)[C@H](CCC(=O)O)NC(=O)[C@@H](N)C(C)C)CCCC1)C(=O)N1CCC[C@H]1C(=O)N[C@@H](Cc1ccc(O)cc1)C(=O)O (H-VE[Ac5c]IPY-OH)	1.09
CC[C@@H](C)[C@@H](NC(=O)[C@@H]1CCCN1C(=O)[C@@H](CCC(=O)O)NC(=O)[C@H](C)N)C(=O)N1CCC[C@H]1C(=O)N[C@H](Cc1ccc(O)cc1)C(=O)O	1.4
CC[C@H](C)[C@H](NC(=O)CCCNC(=O)[C@@H](N)C(C)C)C(=O)N1CCC[C@H]1C(=O)N[C@@H](Cc1ccc(O)cc1)C(=O)O (H-V[GABA]IPY-OH)	0.69
CC[C@H](C)[C@H](NC(=O)CNC(=O)CNC(=O)[C@@H](N)C(C)C)C(=O)N1CCC[C@H]1C(=O)N[C@@H](Cc1ccc(O)cc1)C(=O)O (H-VGGIPY-OH)	1.15
CC[C@@H](C)[C@@H](NC(=O)[C@@H]1CCCN1C(=O)[C@H](CCC(=O)O)NC(=O)[C@@H](N)C(C)C)C(=O)N1CCC[C@H]1C(=O)N[C@H](Cc1ccc(O)cc1)C(=O)O	1.22

Please give Stimulation index for each item listed below.
1. CC[C@@H](C)[C@@H](NC(=O)[C@@H]1CCCN1C(=O)[C@H](CCC(=O)O)NC(=O)[C@H](C)N)C(=O)N1CCC[C@H]1C(=O)N[C@H](Cc1ccc(O)cc1)C(=O)O
2. CC[C@H](C)[C@H](NC(=O)[C@@H]1CCCN1C(=O)[C@H](CCC(=O)O)NC(=O)[C@@H](N)C(C)C)C(=O)N1CCC[C@H]1C(=O)N[C@@H](Cc1ccc(O)cc1)C(=O)O

1. 1.3
2. 1.5

###

# Organism: Mus musculus
# Assay name: Compound was tested for the immunomodulatory activity in vitro expressed as stimulation index by lymphocyte transformation test at 0.1 ug/mL
# Assay type: functional
Quantity kind: Stimulation index

Line notation	Stimulation index
CC[C@H](C)[C@H](NC(=O)[C@@H]1CCCN1C(=O)[C@H](CCC(=O)O)NC(=O)[C@@H](N)C(C)C)C(=O)N1CCC[C@H]1C(=O)N[C@@H](Cc1ccc(O)cc1)C(=O)O	1.43

Please give Stimulation index for each item listed below.
1. CC[C@@H](C)[C@@H](NC(=O)[C@@H]1CCCN1C(=O)[C@H](CCC(=O)O)NC(=O)[C@H](C)N)C(=O)N1CCC[C@H]1C(=O)N[C@H](Cc1ccc(O)cc1)C(=O)O
2. CC[C@@H](C)[C@@H](NC(=O)[C@@H]1CCCN1C(=O)[C@@H](CCC(=O)O)NC(=O)[C@H](C)N)C(=O)N1CCC[C@H]1C(=O)N[C@H](Cc1ccc(O)cc1)C(=O)O

1.27
1.57

###

# Organism: Mus musculus
# Assay name: Compound was tested for the immunomodulatory activity in vitro expressed as stimulation index by lymphocyte transformation test at 0.01 ug/mL
# Type: functional
Non-standard residues stand in square brackets, D forms with d. Residues, ends and D or L forms follow the SMILES beside them. Ac5c = NC1(C(=O)O)CCCC1; GABA = NCCCC(=O)O
Quantity kind: Stimulation index
Answers are plain numbers.

Please give Stimulation index for each item listed below.
1. CC[C@@H](C)[C@@H](NC(=O)[C@@H]1CCCN1C(=O)[C@H](CCC(=O)O)NC(=O)[C@H](C)N)C(=O)N1CCC[C@H]1C(=O)N[C@H](Cc1ccc(O)cc1)C(=O)O
2. CC[C@H](C)[C@H](NC(=O)C1(NC(=O)[C@H](CCC(=O)O)NC(=O)[C@@H](N)C(C)C)CCCC1)C(=O)N1CCC[C@H]1C(=O)N[C@@H](Cc1ccc(O)cc1)C(=O)O (H-VE[Ac5c]IPY-OH)
3. CC[C@H](C)[C@H](NC(=O)CCCNC(=O)[C@@H](N)C(C)C)C(=O)N1CCC[C@H]1C(=O)N[C@@H](Cc1ccc(O)cc1)C(=O)O (H-V[GABA]IPY-OH)
4. CC[C@H](C)[C@H](NC(=O)[C@@H]1CCCN1C(=O)[C@H](CCC(=O)O)NC(=O)[C@@H](N)C(C)C)C(=O)N1CCC[C@H]1C(=O)N[C@@H](Cc1ccc(O)cc1)C(=O)O
5. CC[C@H](C)[C@H](NC(=O)CNC(=O)CNC(=O)[C@@H](N)C(C)C)C(=O)N1CCC[C@H]1C(=O)N[C@@H](Cc1ccc(O)cc1)C(=O)O (H-VGGIPY-OH)
6. CC[C@@H](C)[C@@H](NC(=O)[C@@H]1CCCN1C(=O)[C@@H](CCC(=O)O)NC(=O)[C@H](C)N)C(=O)N1CCC[C@H]1C(=O)N[C@H](Cc1ccc(O)cc1)C(=O)O
7. CC[C@@H](C)[C@@H](NC(=O)[C@@H]1CCCN1C(=O)[C@H](CCC(=O)O)NC(=O)[C@@H](N)C(C)C)C(=O)N1CCC[C@H]1C(=O)N[C@H](Cc1ccc(O)cc1)C(=O)O

1: 1.32; 2: 0.69; 3: 0.55; 4: 1.27; 5: 0.93; 6: 1.17; 7: 0.82
